test system: 873145-292-R-J1-PDC complex spheroid viability; assay: Anticancer human tumor 873145-292-R-J1-PDC patient-derived renal clear cell carcinoma cell line growth inhibition [POLQ]; settings: second compound 3.16 µM; first compound 0.0316 µM; stronger effect = lower value
Threshold 90%. viability, T/C below it: yes. viability, T/C at it or above: no.

- molecule: "CCc1cc2c(N3CCc4c(cc(Cn5ccnc5)cc4-c4cn(C)nc4C(F)(F)F)C3=O)cc(C)nc2c(OC)n1 + COC1C(OC(N)=O)C(O)C(Oc2ccc3c(O)c(NC(=O)c4ccc(O)c(CC=C(C)C)c4)c(=O)oc3c2C)OC1(C)C"
  tested on: "873145-292-R-J1-PDC complex spheroid viability"
  category: "no"
- molecule: "O=C(Nc1ccc(O)c(NS(=O)(=O)c2ccc(F)cc2)c1)c1ccc(-c2ccccc2)cc1 + Cc1cccc(N(C)C(=O)C2C(O)CCN2c2nc(C)cc(C(F)(F)F)c2C#N)c1"
  tested on: "873145-292-R-J1-PDC complex spheroid viability"
  category: "no"
- molecule: "CCc1cc2c(N3CCc4c(cc(Cn5ccnc5)cc4-c4cn(C)nc4C(F)(F)F)C3=O)ccnc2c(OC)n1 + Nc1ccc(C#CCN(C(=O)Cc2ncc(C(F)(F)F)cc2C(F)(F)F)c2ccc(F)cc2)nn1"
  tested on: "873145-292-R-J1-PDC complex spheroid viability"
  category: "no"
- molecule: "O=C(c1cc(Cc2n[nH]c(=O)c3ccccc23)ccc1F)N1CCN(C(=O)C2CC2)CC1 + Cc1cccc(N(C)C(=O)C2C(O)CCN2c2nc(C)cc(C(F)(F)F)c2C#N)c1"
  tested on: "873145-292-R-J1-PDC complex spheroid viability"
  category: "no"
- molecule: "COc1cccc(OCCCN)c1-c1cc(Nc2cnc(C#N)cn2)n[nH]1 + Cc1cccc(N(C)C(=O)C2C(O)CCN2c2nc(C)cc(C(F)(F)F)c2C#N)c1"
  tested on: "873145-292-R-J1-PDC complex spheroid viability"
  category: "yes"
- molecule: "C#Cc1c(F)ccc2cc(O)cc(-c3ncc4c(N5CC6CCC(C5)N6)nc(OCC56CCCN5CC(F)C6)nc4c3F)c12 (stereo unspecified) + Cc1cccc(N(C)C(=O)C2C(O)CCN2c2nc(C)cc(C(F)(F)F)c2C#N)c1"
  tested on: "873145-292-R-J1-PDC complex spheroid viability"
  category: "yes"
- molecule: "CCc1c2c(nc3ccc(O)cc13)-c1cc3c(c(=O)n1C2)COC(=O)[C@]3(O)CC + Nc1ccc(C#CCN(C(=O)Cc2ncc(C(F)(F)F)cc2C(F)(F)F)c2ccc(F)cc2)nn1"
  tested on: "873145-292-R-J1-PDC complex spheroid viability"
  category: "yes"
- molecule: "CC(C)n1c(=O)n(C)c2cnc3cc(F)c(-c4ccc(OCCCN5CCCCC5)nc4)cc3c21 + COC1C(OC(N)=O)C(O)C(Oc2ccc3c(O)c(NC(=O)c4ccc(O)c(CC=C(C)C)c4)c(=O)oc3c2C)OC1(C)C"
  tested on: "873145-292-R-J1-PDC complex spheroid viability"
  category: "no"

###

test system: 873145-292-R-J1-PDC complex spheroid viability; experiment: Anticancer human tumor 873145-292-R-J1-PDC cell line growth inhibition [POLQ]; conditions: second compound 3.16 µM; first compound 3.16 µM; stronger effect = lower value;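 further: spheroids exposed to compounds for 7 days before viability readout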;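 on viability, T/C: luminescence signal used as surrogate for viable cell content; 100% = DMSO vehicle control viability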
endpoint name: viability, T/C (%)

- molecule: "CC1COCCN1c1cc(C2(O)CC3CCC(C2)O3)c2cnn(-c3ccn[nH]3)c2n1 (stereo not given) + Nc1ccc(C#CCN(C(=O)Cc2ncc(C(F)(F)F)cc2C(F)(F)F)c2ccc(F)cc2)nn1"
  endpoint name: "viability, T/C"
  scale unit: "%"
  quantitative result: 56.8
- molecule: "CC1COCCN1c1cc(C2(S(C)(=N)=O)CC2)nc(-c2ccnc3[nH]ccc23)n1 (stereo not given) + COC1C(OC(N)=O)C(O)C(Oc2ccc3c(O)c(NC(=O)c4ccc(O)c(CC=C(C)C)c4)c(=O)oc3c2C)OC1(C)C"
  endpoint name: "viability, T/C"
  scale unit: "%"
  quantitative result: 82.6
- molecule: "COc1ccc([C@@H](O)c2cc(-c3ncnc4cc(N5CCOCC5)ccc34)c(F)cc2Cl)nn1 + Cc1cccc(N(C)C(=O)C2C(O)CCN2c2nc(C)cc(C(F)(F)F)c2C#N)c1"
  endpoint name: "viability, T/C"
  scale unit: "%"
  quantitative result: 57.4
- molecule: "COc1ccc([C@@H](O)c2cc(-c3ncnc4cc(N5CCOCC5)ccc34)c(F)cc2Cl)nn1 + COC1C(OC(N)=O)C(O)C(Oc2ccc3c(O)c(NC(=O)c4ccc(O)c(CC=C(C)C)c4)c(=O)oc3c2C)OC1(C)C"
  endpoint name: "viability, T/C"
  scale unit: "%"
  quantitative result: 62.9
- molecule: "CC(C)n1c(=O)n(C)c2cnc3cc(F)c(-c4ccc(OCCCN5CCCCC5)nc4)cc3c21 + COC1C(OC(N)=O)C(O)C(Oc2ccc3c(O)c(NC(=O)c4ccc(O)c(CC=C(C)C)c4)c(=O)oc3c2C)OC1(C)C"
  endpoint name: "viability, T/C"
  scale unit: "%"
  quantitative result: 90.5

###

Recorded measurements of viability, T/C, one per entry
test system: 873145-292-R-J1-PDC complex spheroid viability; assay: Anticancer human tumor 873145-292-R-J1-PDC cell line growth inhibition [POLQ]; conditions: second compound 0.0316 µM; first compound 0.1 µM; stronger effect = lower value;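 further: spheroids exposed to compounds for 7 days before viability readout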;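 on viability, T/C: luminescence signal used as surrogate for viable cell content; 100% = DMSO vehicle control viability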

- compound: "CCc1cc2c(N3CCc4c(cc(Cn5ccnc5)cc4-c4cn(C)nc4C(F)(F)F)C3=O)cc(C)nc2c(OC)n1 + Cc1cccc(N(C)C(=O)C2C(O)CCN2c2nc(C)cc(C(F)(F)F)c2C#N)c1"
  viability, T/C: "99.8%"
- compound: "CC1COCCN1c1cc(C2(O)CC3CCC(C2)O3)c2cnn(-c3ccn[nH]3)c2n1 (stereo not given) + COC1C(OC(N)=O)C(O)C(Oc2ccc3c(O)c(NC(=O)c4ccc(O)c(CC=C(C)C)c4)c(=O)oc3c2C)OC1(C)C"
  viability, T/C: "71.8%"
- compound: "COc1cccc2c1C(=O)c1c(O)c3c(c(O)c1C2=O)CC(O)(C(=O)CO)CC3OC1CC(N)C(O)C(C)O1 (stereo not given) + Cc1cccc(N(C)C(=O)C2C(O)CCN2c2nc(C)cc(C(F)(F)F)c2C#N)c1"
  viability, T/C: "83.7%"
- compound: "CCc1cc2c(N3CCc4c(cc(Cn5ccnc5)cc4-c4cn(C)nc4C(F)(F)F)C3=O)cc(C)nc2c(OC)n1 + Nc1ccc(C#CCN(C(=O)Cc2ncc(C(F)(F)F)cc2C(F)(F)F)c2ccc(F)cc2)nn1"
  viability, T/C: "110%"
- compound: "C=CCn1c(=O)c2cnc(Nc3ccc(N4CCN(C)CC4)cc3)nc2n1-c1cccc(C(C)(C)O)n1 + Cc1cccc(N(C)C(=O)C2C(O)CCN2c2nc(C)cc(C(F)(F)F)c2C#N)c1"
  viability, T/C: "92%"

###

Recorded measurements of pIC50, one per entry
test system: 873145-292-R-J1-PDC complex spheroid viability; test: Anticancer human tumor 873145-292-R-J1-PDC cell line growth inhibition [POLQ]; conditions: curve of first compound; second compound 1 µM;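 further: spheroids exposed to compounds for 7 days before viability readout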
pIC50: −log10 of the molar value.

- compound: "CNCc1ccc(-c2[nH]c3cc(F)cc4c3c2CCNC4=O)cc1 + Nc1ccc(C#CCN(C(=O)Cc2ncc(C(F)(F)F)cc2C(F)(F)F)c2ccc(F)cc2)nn1"
  pIC50: "< 5.00"
- compound: "COc1cc2cc(C(=O)CCC(=O)O)sc2cc1OC + Nc1ccc(C#CCN(C(=O)Cc2ncc(C(F)(F)F)cc2C(F)(F)F)c2ccc(F)cc2)nn1"
  pIC50: "< 5.00"
- compound: "COc1ccc([C@@H](O)c2cc(-c3ncnc4cc(N5CCOCC5)ccc34)c(F)cc2Cl)nn1 + Nc1ccc(C#CCN(C(=O)Cc2ncc(C(F)(F)F)cc2C(F)(F)F)c2ccc(F)cc2)nn1"
  pIC50: 5.21
- compound: "CC[C@@]1(O)C(=O)OCc2c1cc1n(c2=O)Cc2cc3c(CN(C)C)c(O)ccc3nc2-1 + COC1C(OC(N)=O)C(O)C(Oc2ccc3c(O)c(NC(=O)c4ccc(O)c(CC=C(C)C)c4)c(=O)oc3c2C)OC1(C)C"
  pIC50: 7.04
- compound: "C=CC(=O)N1CCN(c2nc(=O)n(-c3c(C)ccnc3C(C)C)c3nc(-c4c(O)cccc4F)c(F)cc23)C(C)C1 (stereo unspecified) + Nc1ccc(C#CCN(C(=O)Cc2ncc(C(F)(F)F)cc2C(F)(F)F)c2ccc(F)cc2)nn1"
  pIC50: "< 5.00"
- compound: "COc1cc(C2c3cc4c(cc3C(OC3OC5COC(C)OC5C(O)C3O)C3COC(=O)C23)OCO4)cc(OC)c1O (stereo unspecified) + Nc1ccc(C#CCN(C(=O)Cc2ncc(C(F)(F)F)cc2C(F)(F)F)c2ccc(F)cc2)nn1"
  pIC50: "< 5.00"
- compound: "C=CCn1c(=O)c2cnc(Nc3ccc(N4CCN(C)CC4)cc3)nc2n1-c1cccc(C(C)(C)O)n1 + Cc1cccc(N(C)C(=O)C2C(O)CCN2c2nc(C)cc(C(F)(F)F)c2C#N)c1"
  pIC50: "< 6.00"
- compound: "O=c1[nH]cc(F)c(=O)[nH]1 + Nc1ccc(C#CCN(C(=O)Cc2ncc(C(F)(F)F)cc2C(F)(F)F)c2ccc(F)cc2)nn1"
  pIC50: "< 5.00"
- compound: "COc1cccc(OCCCN)c1-c1cc(Nc2cnc(C#N)cn2)n[nH]1 + COC1C(OC(N)=O)C(O)C(Oc2ccc3c(O)c(NC(=O)c4ccc(O)c(CC=C(C)C)c4)c(=O)oc3c2C)OC1(C)C"
  pIC50: "< 6.00"
- compound: "Nc1ccn(C2OC(CO)C(O)C2(F)F)c(=O)n1 (stereo unspecified) + COC1C(OC(N)=O)C(O)C(Oc2ccc3c(O)c(NC(=O)c4ccc(O)c(CC=C(C)C)c4)c(=O)oc3c2C)OC1(C)C"
  pIC50: 5.89
- compound: "COc1cccc2c1C(=O)c1c(O)c3c(c(O)c1C2=O)CC(O)(C(=O)CO)CC3OC1CC(N)C(O)C(C)O1 (stereo unspecified) + Cc1cccc(N(C)C(=O)C2C(O)CCN2c2nc(C)cc(C(F)(F)F)c2C#N)c1"
  pIC50: 5.87
